Data credit: PubChem BioAssay AID1159580

Exercise: for every item that follows, state its recorded normalized growth.
procedureSummary: chemical genetic growth profiling, strain panel (AID 1159580);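 note: tested at 20 µM; growth read once vehicle control cultures reached saturation at 30 °C; 1 = growth at the plate median or of vehicle wells; lower values mean less growth of the strain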
appliedConditions: S. cerevisiae deletion strains, growth OD, locus YKL203C, strain TOR2, active compounds read low
In all, about 5,500 compounds went through this assay and about 2,000 (36%) were called active. Not shown: some 18% with an inconclusive outcome. The list shows a part of the results.

Indicate the recorded normalized growth value for this molecule: CCCC1c2ccsc2CCN1C(=S)Nc1ccc(Cl)cc1Cl (stereo not given)
1.02 (inactive)

Supply recorded normalized growth for CN(C)/C=C/C(=O)c1ccc(C#Cc2ccccc2)cc1 here.
1 (inactive)

Find the measured normalized growth of CCOC(=O)NC(=S)NC12CC3CC(CC(C3)C1)C2 and report it.
0.958 (inactive)

// fetch normalized growth given entry O=C(CO/N=C\c1ccc(Cl)cc1Cl)NNC(=S)Nc1cc(Cl)ccc1Cl
1.06 (inactive)

State, in one line, measured normalized growth of Clc1ccc(-c2noc(CSC3=NCCN3)n2)cc1
1.01 (inactive)

Report normalized growth for COc1ccccc1C(C[N+](=O)[O-])c1c(N)n(C)c(=O)n(C)c1=O (stereo not given)
0.61 (active)

Tell us which normalized growth value is on record for N#CC1=C(N)C(C#N)(C#N)C2(CCCCC2)C2CCCC=C12 (stereo not given)
1.02 (inactive)

Return normalized growth (reported value) for this molecule: O=C(Nc1cccc(C(F)(F)F)c1)Oc1ccc(F)cc1Cl
1.02 (inactive)

Supply reported normalized growth belonging to this molecule: COCCOc1ccccc1NC(=S)SCCSC(=S)Nc1ccccc1OCCOC
1.02 (inactive)

Give me measured normalized growth, please, for this molecule: CCc1cc2c(cc1-c1csc(C/C(N)=N\O)n1)C(C)(C)CCC2(C)C
0.764 (inactive)

Supply measured normalized growth of CC(=O)C(Sc1nc2ccccc2s1)C(C)=O in your reply.
0.879 (inactive)

Using known records, supply normalized growth for CC1(C)C/C(=N/Nc2ccc(C(F)(F)F)cc2)c2cc(C(C)(C)C)c(O)c(O)c2O1
0.731 (inactive)

Hello, please tell me recorded normalized growth for this one: N/C(=N/OC(=O)c1ccc(Cl)cc1)c1ccc(F)cc1F
0.384 (active)

Retrieve normalized growth measured for O=C(CCSc1cccs1)Nc1cccc(C(F)(F)F)c1 and print it.
1.01 (inactive)

Read off the recorded normalized growth for CC12CC[C@@H](O)CC1=CC[C@@H]1C2CCC2(C)C(=O)CC[C@@H]12 (stereo not given in full)
0.92 (inactive)
